biological target: TMPRSS2 (Homo sapiens); assay: TMPRSS2 inhibition, IC50 (Table 1); assay type: biochemical; settings: nonlinear regression, variable slope (four parameters)
pIC50: −log10 of the molar value.
MEASUREMENT_TYPE: pIC50

Reference set, count: 3
| LINE_NOTATION | EXPERIMENTAL_VALUE |
| --- | --- |
| N=C(N)NCCC[C@H](NC(=O)[C@@H]1CCCN1C(=O)[C@H](N)Cc1ccccc1)C(=O)CCl | < 4.00 |
| [H]/N=C(/N)c1ccc(NCc2nc3cc(C(=O)N(CCC(=O)O)c4ccccn4)ccc3n2C)cc1 | < 4.00 |
| N=C(N)c1ccccc1 | < 4.00 |

Specify measured pIC50 for `CC(=O)N[C@@H](CC(C)C)C(=O)N[C@@H](CC(C)C)C(=O)N[C@H](C=O)CCCNC(=N)N` .
< 4.56

---

biological target: TMPRSS2 (Homo sapiens, UniProt O15393); experiment: TMPRSS2 inhibition, IC50 (Table 1); format: biochemical; conditions: nonlinear regression, variable slope (four parameters)
Sequence (O15393 whole entry): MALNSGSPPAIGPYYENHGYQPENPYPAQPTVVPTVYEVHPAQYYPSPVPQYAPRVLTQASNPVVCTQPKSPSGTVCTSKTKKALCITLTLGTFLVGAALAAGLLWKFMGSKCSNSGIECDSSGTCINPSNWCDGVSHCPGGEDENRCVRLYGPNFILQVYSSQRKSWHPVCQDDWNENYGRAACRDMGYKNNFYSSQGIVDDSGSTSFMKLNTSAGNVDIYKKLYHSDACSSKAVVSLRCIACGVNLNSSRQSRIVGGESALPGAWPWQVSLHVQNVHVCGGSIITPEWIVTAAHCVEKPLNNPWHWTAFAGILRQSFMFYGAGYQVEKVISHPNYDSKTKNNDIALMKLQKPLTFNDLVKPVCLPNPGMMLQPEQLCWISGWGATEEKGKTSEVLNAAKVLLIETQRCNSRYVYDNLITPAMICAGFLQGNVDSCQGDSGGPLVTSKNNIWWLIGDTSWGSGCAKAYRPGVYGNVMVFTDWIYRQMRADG
Below, each entry is listed with its recorded log10(IC50).
Please note: log10 values; quantity IC50; unit nM.

Reference set, count: 5
| COMPOUND | TARGET_ENTITY | MEASUREMENT_TYPE | EXPERIMENTAL_VALUE |
| --- | --- | --- | --- |
| CC(=O)N[C@@H](C)C(=O)N[C@@H](CCC(=O)O)C(=O)N[C@@H](CCC(N)=O)C(=O)N[C@@H](CCCNC(=N)N)C(=O)c1nc2ccccc2s1 [Compound 2, Ac-AEQR-kbt] | TMPRSS2 (Homo sapiens, UniProt O15393) | log10(IC50) | 3.22 |
| CC(=O)N[C@@H](CCCNC(=N)N)C(=O)N[C@@H](CCC(=O)O)C(=O)N[C@@H](CS)C(=O)N[C@@H](CCCNC(=N)N)C(=O)c1nc2ccccc2s1 [Compound 7, Ac-RECR-kbt] | TMPRSS2 (Homo sapiens, UniProt O15393) | log10(IC50) | 2.92 |
| CC(=O)N[C@@H](CCC(N)=O)C(=O)N[C@@H](CCC(N)=O)C(=O)N[C@H](C(=O)N[C@@H](CCCNC(=N)N)C(=O)c1nc2ccccc2s1)C(C)C [Compound 4, Ac-QQVR-kbt] | TMPRSS2 (Homo sapiens, UniProt O15393) | log10(IC50) | 2.70 |
| CC(=O)N[C@@H](CC(N)=O)C(=O)N[C@@H](CCC(=O)O)C(=O)N[C@@H](CCC(N)=O)C(=O)N[C@@H](CCCNC(=N)N)C(=O)c1nc2ccccc2s1 [Compound 6, Ac-NEQR-kbt] | TMPRSS2 (Homo sapiens, UniProt O15393) | log10(IC50) | 3.08 |
| CC(=O)N[C@@H](CCCCN)C(=O)N[C@@H](CCC(N)=O)C(=O)N[C@@H](CC(C)C)C(=O)N[C@@H](CCCNC(=N)N)C(=O)c1nc2ccccc2s1 [Ref.1, Ac-KQLR-kbt, reference compound] | TMPRSS2 (Homo sapiens, UniProt O15393) | log10(IC50) | 3.54 |

Specify measured log10(IC50) for CC(=O)NCC(=O)N[C@@H](CCC(N)=O)C(=O)N[C@@H](CCCNC(=N)N)C(=O)N[C@@H](CCCNC(=N)N)C(=O)c1nc2ccccc2s1 [Compound 3, Ac-GQRR-kbt] .
2.52

Specify measured log10(IC50) for CC(=O)N[C@@H](CCCNC(=N)N)C(=O)N[C@@H](CCC(N)=O)C(=O)N[C@@H](CC(C)C)C(=O)N[C@@H](CCCNC(=N)N)C(=O)c1nc2ccccc2s1 [Compound 1, Ac-RQLR-kbt] .
3.10

Specify measured log10(IC50) for CC(=O)N[C@@H](CCC(=O)O)C(=O)N[C@@H](CCC(N)=O)C(=O)N1CCC[C@H]1C(=O)N[C@@H](CCCNC(=N)N)C(=O)c1nc2ccccc2s1 [Compound 5, Ac-EQPR-kbt] .
3.46

---

Below, each entry is listed with its recorded IC50.
target: Recomb. Human Coag. Factor Xa protein (Homo sapiens); construct: purchased Bio-Techne GmbH 1063-SE-010; experiment: Protease Factor Xa inhibition assay, chromogenic substrate Bz-Ile-Glu-Gly-Arg-pNA; assay type: biochemical; conditions: 0.35 nM Factor Xa, 200 µM reference substrate, 30 minutes preincubation, absorption 405 nm, 25°C
Sequence (P00742 235-488 limits assumed): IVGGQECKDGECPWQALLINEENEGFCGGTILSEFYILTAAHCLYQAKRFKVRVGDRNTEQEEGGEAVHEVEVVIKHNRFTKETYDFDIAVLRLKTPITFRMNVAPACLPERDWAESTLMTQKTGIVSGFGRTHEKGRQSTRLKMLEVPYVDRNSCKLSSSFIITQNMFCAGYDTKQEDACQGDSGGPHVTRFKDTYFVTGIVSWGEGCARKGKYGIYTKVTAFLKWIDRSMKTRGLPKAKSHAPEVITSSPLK
Sequence (P00742 41-179 partner limits assumed): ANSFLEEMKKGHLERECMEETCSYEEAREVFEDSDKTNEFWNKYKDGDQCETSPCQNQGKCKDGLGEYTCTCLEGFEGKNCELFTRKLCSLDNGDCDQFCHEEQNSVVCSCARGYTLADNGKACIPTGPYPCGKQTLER
Hi! Could you send only the number? It should be in nM, unit omitted.

| COMPOUND | TARGET_ENTITY | MEASUREMENT_TYPE | EXPERIMENTAL_VALUE |
| --- | --- | --- | --- |
| CC(=O)N[C@@H](CCC(N)=O)C(=O)N[C@@H](CCC(N)=O)C(=O)N[C@H](C(=O)N[C@@H](CCCNC(=N)N)C(=O)c1nc2ccccc2s1)C(C)C | Recomb. Human Coag. Factor Xa protein (Homo sapiens) | IC50 | 1500 |
| CC(=O)NCC(=O)N[C@@H](CCC(N)=O)C(=O)N[C@@H](CCCNC(=N)N)C(=O)N[C@@H](CCCNC(=N)N)C(=O)c1nc2ccccc2s1 | Recomb. Human Coag. Factor Xa protein (Homo sapiens) | IC50 | 22000 |
| CC(=O)N[C@@H](CCCCN)C(=O)N[C@@H](CCC(N)=O)C(=O)N[C@@H](CC(C)C)C(=O)N[C@@H](CCCNC(=N)N)C(=O)c1nc2ccccc2s1 [Ref.1, Ac-KQLR-kbt, reference compound] | Recomb. Human Coag. Factor Xa protein (Homo sapiens) | IC50 | 338 |
| CC(=O)N[C@@H](CCCNC(=N)N)C(=O)N[C@@H](CCC(=O)O)C(=O)N[C@@H](CS)C(=O)N[C@@H](CCCNC(=N)N)C(=O)c1nc2ccccc2s1 | Recomb. Human Coag. Factor Xa protein (Homo sapiens) | IC50 | 611 |
| CC(=O)N[C@@H](CC(N)=O)C(=O)N[C@@H](CCC(=O)O)C(=O)N[C@@H](CCC(N)=O)C(=O)N[C@@H](CCCNC(=N)N)C(=O)c1nc2ccccc2s1 | Recomb. Human Coag. Factor Xa protein (Homo sapiens) | IC50 | 8140 |
| CC(=O)N[C@@H](CCCNC(=N)N)C(=O)N[C@@H](CCC(N)=O)C(=O)N[C@@H](CC(C)C)C(=O)N[C@@H](CCCNC(=N)N)C(=O)c1nc2ccccc2s1 | Recomb. Human Coag. Factor Xa protein (Homo sapiens) | IC50 | 47.1 |

Turning to the following compound.
Specify measured IC50 for `CC(=O)N[C@@H](C)C(=O)N[C@@H](CCC(=O)O)C(=O)N[C@@H](CCC(N)=O)C(=O)N[C@@H](CCCNC(=N)N)C(=O)c1nc2ccccc2s1` .
991
